testedTarget: Vasoactive intestinal polypeptide receptor 2 (Homo sapiens)
Sequence (whole entry): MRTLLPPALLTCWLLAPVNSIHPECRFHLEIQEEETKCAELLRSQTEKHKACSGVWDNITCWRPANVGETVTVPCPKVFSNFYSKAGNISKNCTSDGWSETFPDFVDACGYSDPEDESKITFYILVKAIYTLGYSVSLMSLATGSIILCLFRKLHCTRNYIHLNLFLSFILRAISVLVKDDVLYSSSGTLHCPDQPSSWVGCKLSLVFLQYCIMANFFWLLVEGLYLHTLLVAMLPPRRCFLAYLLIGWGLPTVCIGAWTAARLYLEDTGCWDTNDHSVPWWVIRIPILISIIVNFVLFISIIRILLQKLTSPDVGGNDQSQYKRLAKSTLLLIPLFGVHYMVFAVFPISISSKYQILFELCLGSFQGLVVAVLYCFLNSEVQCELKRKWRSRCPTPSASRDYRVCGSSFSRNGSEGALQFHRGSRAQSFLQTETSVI
assayOverview: Antagonist activity at recombinant human N-terminal signal peptide/FLAG epitope-tagged VIPR2 expressed in HEK293 cells co-expressing CAMYEL assessed as inhibition of VIP-induced cAMP accumulation at 0.5 uM preincubated for 5 mins with luciferin, coelenterazine H followed by VIP addition measured after 5 mins by BRET assay relative to control
Assay type: functional, cell-based
Lab note: anything with inhibition at or over 20% counts as criterion met; the rest go in criterion not met.

Examples with answers:
molecule	group
Cc1ccc(S(=O)(=O)NC[C@@H](O)C[C@@H](Cc2ccccc2)C(=O)N[C@H]2c3ccccc3C[C@H]2O)cc1	criterion met
CC1CCC(NC(=O)[C@H](Cc2ccccc2)C[C@H](O)CNS(=O)(=O)c2ccc([N+](=O)[O-])cc2)CC1 (stereo not given in full)	criterion not met
O=C(NC1CCCC1)[C@@H](Cc1ccccc1)C[C@H](O)CNS(=O)(=O)c1ccc([N+](=O)[O-])cc1	criterion not met

Q: Could you please find out whether COc1ccc(S(=O)(=O)NC[C@@H](O)C[C@@H](Cc2ccccc2)C(=O)N[C@H]2c3ccccc3C[C@H]2O)cc1 has inhibition that meets 20% or exceeds it?
Result: criterion met

Q: Could you tell me if the measured inhibition of O=C(NC[C@@H](O)C[C@@H](Cc1ccccc1)C(=O)N[C@H]1c2ccccc2C[C@H]1O)c1ccc2ccccc2c1 reaches 20% or more?
Result: criterion not met

Q: Is reported inhibition greater than or equal to 20% here: O=C(CCN1C(=O)C=CC1=O)NC[C@@H](O)C[C@@H](Cc1ccccc1)C(=O)N[C@H]1c2ccccc2C[C@H]1O
Result: criterion not met

Q: # check: inhibition of C[C@H](CC(C)(C)C)NC(=O)[C@@H](Cc1ccccc1)C[C@H](O)CNS(=O)(=O)c1ccc([N+](=O)[O-])cc1 is greater than or equal to 20%
Result: criterion not met

Q: Test whether the molecule O=C(NC[C@@H](O)C[C@@H](Cc1ccccc1)C(=O)N[C@H]1c2ccccc2C[C@H]1O)c1cccc([N+](=O)[O-])c1 records inhibition of 20% or higher.
Result: criterion not met
